// reported cell painting activity score per item
tested on: U-2 OS; assay: cell painting activity score (Mahalanobis distance from DMSO wells); higher = stronger morphological phenotype; settings: 1.25 µM; 24 h

COMPOUND	cell painting activity score
CCCCCCCCCCCC1=C(O)C(=O)C=C(O)C1=O	4.55

What value of cell painting activity score has been recorded for this entry: O=C1O[C@H]2[C@@H]3OC(=O)c4cc(O)c(O)c(O)c4-c4c(O)c(O)c5oc(=O)c6c(c(O)c(O)c7oc(=O)c4c5c76)-c4c(cc(O)c(O)c4O)C(=O)OC[C@H]3OC(O)[C@@H]2OC(=O)c2cc(O)c(O)c(O)c2-c2c1cc(O)c(O)c2O (stereo not given in full) 7.35

I am curious: what cell painting activity score value has been reported for CC(Cc1ccc(O)c(O)c1)C(C)Cc1ccc(O)c(O)c1 (stereo not given) ? 8.68

Could you share which cell painting activity score value was measured for CC(=O)O[C@H]1C(=O)[C@@]2(C)[C@H]([C@H](OC(=O)c3ccccc3)[C@]3(O)C[C@H](OC(=O)[C@H](O)[C@@H](NC(=O)c4ccccc4)c4ccccc4)C(C)=C1C3(C)C)[C@]1(OC(C)=O)CO[C@@H]1C[C@@H]2O ? 24.9

Form field: reported cell painting activity score of CC1(C)CC[C@]2(C(=O)n3ccnc3)CC[C@]3(C)[C@H](C(=O)C=C4[C@@]5(C)C=C(C#N)C(=O)C(C)(C)[C@@H]5CC[C@]43C)[C@@H]2C1 23.5

Name the recorded cell painting activity score for CC[C@]1(O)C[C@@H]2CN(CCc3c([nH]c4ccccc34)[C@@](C(=O)OC)(c3cc4c(cc3OC)N(C)[C@H]3[C@@](O)(C(=O)OC)[C@H](OC(C)=O)[C@]5(CC)C=CCN6CC[C@]43[C@@H]65)C2)C1 . 24.9

Request the reported cell painting activity score associated with Oc1ccc2ccccc2c1SSc1c(O)ccc2ccccc12 4.94

GET /values?readout=cell painting activity score&item= CCN(CCO)CCCOc1ccc2c(Nc3cc(CC(=O)Nc4cccc(F)c4)[nH]n3)ncnc2c1 14.4

Any idea what its cell painting activity score is? The compound is O=[N+]([O-])c1c(Sc2ncnc3nc[nH]c23)cc(Cl)c2nsnc12 4.43

Which cell painting activity score value belongs to C=C(C)[C@H]1Cc2c(ccc3c2O[C@@H]2COc4cc(OC)c(OC)cc4[C@@H]2C3=O)O1 ? 11.4

---

system: U-2 OS; assay: cell painting activity score (Mahalanobis distance from DMSO wells); higher = stronger morphological phenotype; settings: 1.25 µM; 24 h
Record y whenever cell painting activity score is at 5 or higher; record n when lower.

MOLECULE	DISCRETE LABEL
COc1cc(=O)oc(/C=C/C=C/C=C/C(C)=C/[C@]2(C)O[C@H](C)[C@](C)(O)[C@H]2O)c1C	n
COC(=O)[C@@]12OC[C@]34[C@H]([C@@H](O)[C@@H]1O)[C@@]1(C)CC(=O)C(O)=C(C)[C@@H]1C[C@H]3OC(=O)[C@H](OC(=O)CC(C)C)[C@@H]24	y
CC[C@H](C)[C@@H]1NC(=O)CNC(=O)[C@@H]2Cc3c([nH]c4cc(O)ccc34)S(=O)C[C@H](NC(=O)CNC1=O)C(=O)N[C@@H](CC(=O)O)C(=O)N1C[C@H](O)C[C@H]1C(=O)N[C@@H]([C@@H](C)[C@@H](O)CO)C(=O)N2 (some centres not stated)	n
CC(C)(C)C(=O)OCOc1cccc2c1C(=O)C1C3C=CC(CC3)C1C2=O (configuration not stated)	y
COc1cc([C@@H]2c3cc4c(cc3[C@H](O)[C@H]3COC(=O)[C@H]23)OCO4)cc(OC)c1OC	y

Given the entry O=NN(CCCl)C(=O)NCCCl , answer whether its cell painting activity score meets or surpasses 5. n

API: above_or_equal(metric=cell painting activity score, cutoff=5) for item O=NN(CCCl)C(=O)NC1CCCCC1 n

Record O=C(O)CSc1cc(NS(=O)(=O)c2ccc(Br)cc2)c2ccccc2c1O ; criterion: cell painting activity score no lower than 5. Met? y

Is cell painting activity score for C=CC(=O)Nc1cc2c(Nc3ccc(F)c(Cl)c3)ncnc2cc1OC at or above 5? y

Say whether O=C([O-])C(=O)[O-].[NH-][C@@H]1CCCC[C@H]1[NH-].[Pt+4] shows cell painting activity score of 5 or more. y

Check this molecule for cell painting activity score at or above 5: C[n+]1ccc(-c2cc[n+](CCCCCCCCCC[P+](c3ccccc3)(c3ccccc3)c3ccccc3)cc2)cc1.[I-].[I-].[I-] n

cell painting activity score >= 5 for COC1=CC=C(S(=O)(O/N=C2C=C(C(C(C)=C\2)=O)C)=O)C=C1 ? y

For this molecule, is measured cell painting activity score 5 or higher? Nc1c[n+](N2CCOCC2)no1.[Cl-] y

Is cell painting activity score at least 5? Consider CS(=O)(=O)OCCCCOS(C)(=O)=O n

Hi, just wondering whether CCc1c2c(nc3ccc(O)cc13)-c1cc3c(c(=O)n1C2)COC(=O)[C@]3(O)CC shows cell painting activity score of 5 or higher. y

I'd appreciate it if you could say whether COC1=C(OC)C(=O)c2ccccc2C1=O has cell painting activity score at least equal to 5. y

Determine whether this molecule has cell painting activity score no lower than 5: CCCCCCCCCCCCCCCCCCOP(=O)([O-])OC1CC[N+](C)(C)CC1 n

Check this molecule for cell painting activity score at or above 5: CC1=C(CO)C(=O)O[C@H](C(C)[C@H]2CC[C@@H]3[C@H]4C[C@H]5O[C@@]56[C@@H](O)C=CC(=O)[C@@]6(C)C4CC[C@@]23C)C1 (some centres not stated) y

In plain terms: is recorded cell painting activity score at least 5 for O=[N+]([O-])c1c(Cl)cc(Cl)c2nsnc12 ? y

Is reported cell painting activity score greater than or equal to 5 here: C[C@@]1(CO)[C@H](O)CC[C@@]2(C)[C@H]1CC[C@H]1C[C@@H]3C[C@@]12CC[C@]3(O)CO y

Entry O=c1c(O)c(-c2ccc(O)c(O)c2)oc2cc(O)cc(O)c12 : is its cell painting activity score no less than 5? n

Would you say CN[C@@H]1C[C@H]2O[C@@](C)([C@@H]1OC)n1c3ccccc3c3c4c(c5c6ccccc6n2c5c31)C(=O)NC4 shows cell painting activity score at minimum 5? y

---

system: U-2 OS; experiment: cell painting activity score (Mahalanobis distance from DMSO wells); higher = stronger morphological phenotype; conditions: 5 µM; 24 h
Entries and their cell painting activity score values follow.

COMPOUND	cell painting activity score
C[C@@]12C(=O)OC(=O)[C@]1(C)[C@H]1CC[C@@H]2O1	13.3
O=S1(=O)CC(Sc2cccs2)c2ccccc21 (centres undefined)	3.78
Oc1ccc2ccccc2c1SSc1c(O)ccc2ccccc12	8.22
COc1ccc(/C=C/C(=O)O[C@@H]2[C@H](O[C@@H]3O[C@@H](C)[C@H](O)[C@@H](O)[C@H]3O)[C@@H](O[C@@H]3O[C@@H](C)[C@H](O[C@@H]4OC[C@@H](O[C@@H]5O[C@H](CO)[C@H](O)[C@H](O)[C@H]5O)[C@H](O)[C@H]4O)[C@@H](O)[C@H]3O)[C@H](OC(=O)[C@]34CCC(C)(C)C[C@H]3C3=CC[C@@H]5[C@@]6(C)C[C@H](O)[C@H](O[C@@H]7O[C@H](CO)[C@@H](O)[C@H](O)[C@H]7O)[C@@](C)(C(=O)O)[C@@H]6CC[C@@]5(C)[C@]3(CO)CC4)O[C@@H]2C)cc1	9.11
O=C1Cc2c([nH]c3ccc(Br)cc23)-c2ccccc2N1	13.7
CC(C)([C@](C1=O)(C2=O)C/C=C(C)\C)[C@@H](C[C@]31C[C@@H](C(C)(OC3=C2C(C4=CC(O)=C(C=C4)O)=O)C)C/C=C(C)\C)C/C=C(C)\C	7.13
O=C(NNS(=O)(=O)c1ccccc1)c1cc(-c2ccnnc2)ccc1F	3.67
O=C(NNS(=O)(=O)c1ccccc1F)c1cc(F)cc(-c2ccccn2)c1	9.11

Look up cell painting activity score for this compound: CNc1nc(-c2ccccc2)[n+](-c2ccccc2)s1 3.74

---

system: U-2 OS; experiment: cell viability (CellTiter-Glo) relative to DMSO (% of control); higher = more viable; details: 80 µM; 24 h
Reported cell viability values are given for each entry in this list.
Output: the number by itself.

Some solved cases for reference:
GIVEN SMILES	TARGET OR TEST SYSTEM	cell viability
CCCC[S@](=N)(=O)CC[C@H](N)C(=O)O	U-2 OS	106
O=C(O[C@@H]1Cc2c(O)cc(O)cc2O[C@@H]1c1cc(O)c(O)c(O)c1)c1cc(O)c(O)c(O)c1	U-2 OS	43.2
C=C(C)[C@@H](CC=C(C)C)C[C@@]12C[C@@H](CC=C(C)C)C(C)(C)[C@@](CC=C(C)C)(C(=O)/C(=C(\O)c3ccc(O)c(O)c3)C1=O)C2=O	U-2 OS	0.589
CC1=NN(c2ccc(C(=O)O)cc2)C(=O)/C1=C\c1ccc(-c2cc(C)c(C)cc2[N+](=O)[O-])o1	U-2 OS	90.6

Data request, read-out cell viability, for O=C1/C(=C/c2ccc(O)c(Br)c2)CCC/C1=C\c1ccc(O)c(Br)c1 11.9
